I'd appreciate it if you could supply IC50 values for the items below.
- study system: NRAS G12C (Homo sapiens, UniProt P01111+P62937, G12C)
- Sequence (P01111 whole entry G12C): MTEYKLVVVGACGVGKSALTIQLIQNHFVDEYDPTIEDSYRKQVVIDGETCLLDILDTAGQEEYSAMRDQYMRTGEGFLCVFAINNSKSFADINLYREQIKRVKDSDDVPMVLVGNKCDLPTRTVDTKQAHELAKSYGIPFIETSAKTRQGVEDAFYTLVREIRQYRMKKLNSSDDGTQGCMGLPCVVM
- Sequence (P62937 whole entry): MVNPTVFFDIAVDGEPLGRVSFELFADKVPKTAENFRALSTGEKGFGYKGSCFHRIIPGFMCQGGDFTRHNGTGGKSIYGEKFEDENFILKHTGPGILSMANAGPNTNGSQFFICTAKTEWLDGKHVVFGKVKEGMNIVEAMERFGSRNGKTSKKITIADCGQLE
- protocol text: Ras-Raf disruption / FRET / MOA assay (BRAF RBD)
- Format: biochemical
- experimental setup: NRAS G12C; read-out: NRAS G12C FRET data IC50

Exam item: Entry CCn1c(-c2cccnc2[C@H](C)OC)c2c3cc(ccc31)-c1csc(n1)C[C@H](NC(=O)[C@H](C(C)C)N(C)C(=O)N1CC(N(C)C(=O)[C@@H]3CN3)C1)C(=O)N1CCC[C@H](N1)C(=O)OCC(C)(C)C2 (atropisomer, axis not shown) , system NRAS G12C (Homo sapiens, UniProt P01111+P62937, G12C): what IC50 was measured?
Marked response: 100 to 1000 nM

Exam item: What would you report for CCn1c(-c2cccnc2[C@H](C)OC)c2c3cc(ccc31)-c1csc(n1)C[C@H](NC(=O)[C@H](C(C)C)N(C)C(=O)N(C)C1CN(C(=O)[C@@H]3CN3)C1)C(=O)N1CCC[C@H](N1)C(=O)OCC(C)(C)C2 ?
Marked response: 100 to 1000 nM

Exam item: Try this molecule too: CCn1c(-c2cccnc2[C@H](C)OC)c2c3cc(ccc31)-c1cc(O)cc(c1)C[C@H](NC(=O)[C@H](C(C)C)N1CC[C@@]3(CCN(C(=O)[C@@H]4N[C@@H]4C4CC4)C3)C1=O)C(=O)N1CCC[C@H](N1)C(=O)OCC(C)(C)C2
Marked response: 10 to 100 nM

Exam item: And CCn1c(-c2cccnc2[C@H](C)OC)c2c3cc(ccc31)-c1cc(O)cc(c1)C[C@H](NC(=O)[C@H](C(C)C)N(C)C(=O)N1CCCN(C(=O)[C@H]3CN3)CC1)C(=O)N1CCC[C@H](N1)C(=O)OCC(C)(C)C2 (atropisomer, axis not shown) ?
Marked response: 10 to 100 nM

---

- study system: NRAS Q61R (Homo sapiens, UniProt P01111+P62937, Q61R)
- Sequence (P01111 whole entry Q61R): as the sequence (P01111 whole entry G12C) above, with C12G, Q61R counted along it
- Sequence (P62937 whole entry): as the sequence (P62937 whole entry) above
- protocol text: Disruption of BRAF RBD interaction with Ras (FRET / MOA assay, with Cyclophilin A)
- Assay type: biochemical
- experimental setup: NRAS Q61R; read-out: NRAS Q61R FRET data IC50
readout type: IC50

Exam item: Report IC50 for CCn1c(-c2cccnc2[C@H](C)OC)c2c3cc(ccc31)N1CCC[C@@H](C[C@H](NC(=O)[C@H](C(C)C)N(C)C(=O)C3CCN(C(=O)C#CC(C)(C)N4CCC4)C3)C(=O)N3CCCC(N3)C(=O)OCC(C)(C)C2)C1 (stereo partly shown) [Example A617] tested on NRAS Q61R (Homo sapiens, UniProt P01111+P62937, Q61R).
Marked response: > 10 µM

Exam item: Query CCn1c(-c2cccnc2[C@H](C)OC)c2c3cc(ccc31)-c1cc(O)cc(c1)C[C@H](NC(=O)[C@@H]1[C@H](C)CCN1C(C)=O)C(=O)N1CCC[C@H](N1)C(=O)OCC(C)(C)C2 [Example A144] next
Marked response: 1 to 10 µM

Exam item: Field entry: CCn1c(-c2cccnc2[C@H](C)OC)c2c3cc(ccc31)-c1cccc(c1)C[C@H](NC(=O)[C@H](C(C)C)N1CC[C@]3(CCN(C(=O)C#C[C@]4(N(C)C)CCOC4)C3)C1=O)C(=O)N1CCC[C@H](N1)C(=O)OCC(C)(C)C2 [Example A559]
Marked response: 1 to 10 µM

Exam item: Same question for CCn1c(-c2cccnc2[C@H](C)OC)c2c3cc(ccc31)-c1csc(n1)C[C@H](NC(=O)[C@H](C(C)C)N(C)C(=O)N1CCC13CCOCC3)C(=O)N1CCC[C@H](N1)C(=O)OCC(C)(C)C2 (atropisomer, axis not shown) [Example A601] please.
Marked response: 0.01 to 0.1 µM

meta.source: patent US20230233569A1
